molecular target: NAD-dependent protein deacetylase sirtuin-1 (Homo sapiens, UniProt Q96EB6); assay: Inhibition of hexa-His-tagged recombinant human SIRT1 expressed in Escherichia coli BL21(DE3) using AMC-labeled Arg-His-Lys-Lys(ac) as substrate assessed as inhibition of deacetylation of peptide after 45 mins by fluorescence assay
Category key, based on recorded IC50: low end = under 30 µM, middle = from 30 µM up to 80 µM, high end = 80 µM and over

// bin(item) where item = `Fc1ccc(-c2ccc(-c3nn4c(-c5ccco5)nnc4s3)o2)cc1` high end

---
// bin(item) where item = `CCOc1ccc(-c2nn3c(-c4ccco4)nnc3s2)cc1` middle

// bin(item) where item = `COc1ccc(Cc2nn3c(-c4ccco4)nnc3s2)cc1` middle

// bin(item) where item = `c1coc(-c2nnc3sc(-c4cccs4)nn23)c1` high end

// bin(item) where item = CCC(c1ccccc1)c1nn2c(-c3ccco3)nnc2s1 (configuration not stated) high end

// bin(item) where item = `COc1cc(-c2nn3c(-c4ccco4)nnc3s2)cc(OC)c1OC` middle

// bin(item) where item = `c1coc(-c2nnc3sc(Cc4ccc5c(c4)OCCO5)nn23)c1` middle

// bin(item) where item = `COc1ccc(-c2nn3c(-c4ccco4)nnc3s2)cc1OC` low end

// bin(item) where item = `c1coc(-c2nnc3sc(-c4cc5ccccc5o4)nn23)c1` low end

// bin(item) where item = `Cc1ccccc1OCc1nn2c(-c3ccco3)nnc2s1` low end

----------
Biological target: NAD-dependent protein deacetylase sirtuin-1 (Homo sapiens, UniProt Q96EB6)
Sequence (Q96EB6 whole entry): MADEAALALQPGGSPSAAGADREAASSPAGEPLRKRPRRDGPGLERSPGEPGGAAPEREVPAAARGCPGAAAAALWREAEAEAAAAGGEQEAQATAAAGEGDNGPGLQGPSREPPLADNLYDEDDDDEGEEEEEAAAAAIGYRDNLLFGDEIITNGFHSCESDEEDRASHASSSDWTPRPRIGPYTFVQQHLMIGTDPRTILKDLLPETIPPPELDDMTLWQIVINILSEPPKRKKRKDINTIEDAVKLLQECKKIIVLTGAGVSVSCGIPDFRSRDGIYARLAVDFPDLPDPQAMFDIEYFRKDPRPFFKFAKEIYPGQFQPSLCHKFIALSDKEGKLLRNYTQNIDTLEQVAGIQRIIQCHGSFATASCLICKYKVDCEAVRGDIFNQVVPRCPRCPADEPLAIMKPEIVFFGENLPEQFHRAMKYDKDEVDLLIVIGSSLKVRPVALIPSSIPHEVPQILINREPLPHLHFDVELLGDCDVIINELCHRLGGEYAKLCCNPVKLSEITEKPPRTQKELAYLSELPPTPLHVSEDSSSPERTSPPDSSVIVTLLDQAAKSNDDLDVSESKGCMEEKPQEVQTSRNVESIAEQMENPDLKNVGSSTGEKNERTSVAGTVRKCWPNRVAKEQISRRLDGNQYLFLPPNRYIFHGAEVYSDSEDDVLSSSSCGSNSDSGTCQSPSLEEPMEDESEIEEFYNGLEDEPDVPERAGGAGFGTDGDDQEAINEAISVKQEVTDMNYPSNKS
Experiment: Inhibition of hexa-His-tagged recombinant human SIRT1 expressed in Escherichia coli BL21(DE3) using AMC-labeled Arg-His-Lys-Lys(ac) as substrate assessed as inhibition of deacetylation of peptide after 45 mins by fluorescence assay
quantityMeasured: IC50 (µM)
Reply numerically in µM, unit not repeated.

// worked examples, IC50 included
Complete the entry with IC50 for `COc1ccc(-c2nn3c(-c4ccco4)nnc3s2)cc1` 46.7

Complete the entry with IC50 for `COc1ccccc1OCc1nn2c(-c3ccco3)nnc2s1` 51.2

Complete the entry with IC50 for `c1ccc(CCCc2nn3c(-c4ccco4)nnc3s2)cc1` 12.2

Complete the entry with IC50 for `CCOc1ccccc1OCc1nn2c(-c3ccco3)nnc2s1` 13.7

Complete the entry with IC50 for `CCOc1ccccc1-c1nn2c(-c3ccco3)nnc2s1` 23.6

Complete the entry with IC50 for `COc1ccc(Cc2nn3c(-c4ccco4)nnc3s2)cc1OC` 4.1

Next item in the queue.
Complete the entry with IC50 for `C=CCOc1cccc(-c2nn3c(-c4ccco4)nnc3s2)c1` 18.8

src = ChEMBL document CHEMBL3351989
